Assay: Microsomal stability assay, mouse liver microsomes
Settings: 60 min
outcome.measure: Microsomal Stability (mouse) % rem. 60 min

[[record]]
molecule = "O=C(N[C@H]1CC[C@@H](Oc2nc(N3CCOCC3)cc3ncccc23)CC1)c1ccc(C(F)(F)F)o1"
result = "E (% remaining = 0-25%)"

[[record]]
molecule = "FC(F)(F)c1cnn([C@H]2CC[C@@H](Oc3nc(N4CCOCC4)cc4ncccc34)CC2)c1 [Compound 17b]"
result = "E (% remaining = 0-25%)"


###

Experiment: Pharmacokinetic study in rats (IV, PO)
Format: in vivo, Sprague-Dawley rats
Details: male, Sprague-Dawley; Table B; Rat Plasma; PO; 3 mg/kg; read-out: AUCINF—obs
outcome.measure: AUC(0-inf) (ng·h/mL)
Give a bare numeral; the unit ng·h/mL is implied.

Query: Given the entry `O=C(N[C@H]1CC[C@@H](Oc2nc(N3CCOCC3)cc3ncccc23)CC1)c1ncccn1` , report its measured AUC(0-inf).
Response: 198
